Cited source for all entries: paper PMC6736568

tested on: HCT-8 cells; experiment: In vitro cytotoxicity MTS assay on host cells; assay type: cell-based, human; details: HCT-8 cells, 41 h, MTS
*1 amine or outer side, *2 acyl side, *3 side chain or, on linkers, in order; H or OH if unused. Where a SMILES comes first, the peptide text is derived from it. Bridges are numbered along the chain shown (N, C = ends). Roman numbers before positions name the chains, in order. [ ]: non-standard residue; d: D form. Actinocin(9to1) = Cc1c2oc3c(C)ccc(C(=O)[*:1])c3nc-2c(C(=O)[*:2])c(N)c1=O; NMeV = CN[C@H](C(=O)O)C(C)C; Sar = CNCC(=O)O
Assign TC50 to each entry below.
Numbers only, in µM.

Consider the worked cases shown below.
- molecule: "CC1(C)C(=O)C=C[C@]2(C)[C@H]3CC[C@@]4(C)[C@H](c5ccoc5)OC(=O)[C@H]5O[C@]54[C@]3(C)C(=O)C[C@@H]12 [Deacetoxy-7-oxogedunin]"
  targetSystem: "HCT-8 cells"
  unitTag: "µM"
  TC50: 12.8
- molecule: "CC1(C)C(=O)C=C[C@]2(C)[C@H]3CC[C@@]4(C)[C@H](c5ccoc5)OC(=O)[C@H]5O[C@]54[C@]3(C)[C@H](O)C[C@@H]12 [Deacetylgedunin]"
  targetSystem: "HCT-8 cells"
  unitTag: "µM"
  TC50: 30.9
- molecule: "Cc1c2oc3c(C)ccc(C(=O)N[C@@H]4C(=O)N[C@H](C(C)C)C(=O)N5CCC[C@H]5C(=O)N(C)CC(=O)N(C)[C@@H](C(C)C)C(=O)O[C@@H]4C)c3nc-2c(C(=O)N[C@@H]2C(=O)N[C@H](C(C)C)C(=O)N3CCC[C@H]3C(=O)N(C)CC(=O)N(C)[C@@H](C(C)C)C(=O)O[C@@H]2C)c(N)c1=O [Dactinomycin, reference compound] (I: T[dV]P[Sar][NMeV] / II: T[dV]P[Sar][NMeV]; ester I:1-I:C, II:1-II:C; linker I:N-II:N via Actinocin(9to1))"
  targetSystem: "HCT-8 cells"
  unitTag: "µM"
  TC50: 2.82
- molecule: "COc1ccc2c(c1)OC[C@H](Cc1ccc(OC)c(O)c1)C2=O [Deoxysappanone B 7,4′-dimethyl ether]"
  targetSystem: "HCT-8 cells"
  unitTag: "µM"
  TC50: 64.9

As a next step, examine the molecule that follows.
Quote TC50 reported for CO[C@@]12[C@H](COC(N)=O)C3=C(C(=O)C(C)=C(N)C3=O)N1C[C@@H]1N[C@@H]12 [Mitomycin, reference compound] please.
13.1

====

test system: Cryptosporidium parvum; assay: qRT-PCR assay of the growth of C. parvum in vitro in HCT-8 host cells (primary and secondary screening, EC50); assay type: cell-based; details: Cryptosporidium parvum; growth of C. parvum in vitro, HCT-8 host cells, 44 h infection
Mark fulfilled only for EC50 values smaller than 1 µM; exact matches and larger values are not fulfilled.

Worked set:
- compound: "CC[C@H](C)C(=O)O[C@H]1C[C@@H](C)C=C2C=C[C@H](C)[C@H](CC[C@@H]3C[C@@H](O)CC(=O)O3)[C@H]21 [Lovastatin, reference compound]"
  classAssignment: "not fulfilled"
- compound: "CC(C)[C@@H]1NC(=O)[C@H](C)OC(=O)[C@@H](C(C)C)NC(=O)[C@@H](C(C)C)OC(=O)[C@H](C(C)C)NC(=O)[C@H](C)OC(=O)[C@@H](C(C)C)NC(=O)[C@@H](C(C)C)OC(=O)[C@H](C(C)C)NC(=O)[C@H](C)OC(=O)[C@@H](C(C)C)NC(=O)[C@@H](C(C)C)OC1=O [Valinomycin, reference compound]"
  classAssignment: "fulfilled"
- compound: "COc1ccc2c(c1)OC[C@H](Cc1ccc(OC)c(O)c1)C2=O"
  classAssignment: "fulfilled"
- compound: "COc1ccc(C(=O)c2ccc(O)cc2)c(O)c1O [2,3,4′-Trihydroxy-4-methoxybenzophenone]"
  classAssignment: "not fulfilled"

Attention now turns to another entry.
# TODO verify EC50 < 1 µM strictly for this compound: Cc1cccc2c3c(ccc12)C1=C(C(=O)C3=O)[C@@H](C)CO1 [Dihydrotanshinone I]
not fulfilled

====

tested on: HCT-8 host cells (Hs18S); details: primary screening at 10 uM, from Hs18S ΔCT
Assignment: determine reported Cytotoxicity (%) for the given molecules.
One number for each entry, in %.

Consider the worked cases shown below.
- molecule: "O=C(O)c1cc(O)c(=O)c2c(O)c(O)c(O)cc2c1"
  parameter: "Cytotoxicity (%)"
  assayResult: 7.3
- molecule: "C[C@@H]1CC[C@H]2[C@](C)(CO)[C@@H](O)CC[C@]2(C)[C@@]12CC[C@@](CO)(CCO)O2"
  parameter: "Cytotoxicity (%)"
  assayResult: 34.1
- molecule: "OC[C@H]1O[C@H](OCC2O[C@@H](O)[C@H](O)[C@@H](O)[C@@H]2O)[C@H](O)[C@@H](O)[C@H]1O (some centres unmarked)"
  parameter: "Cytotoxicity (%)"
  assayResult: -4.0
- molecule: "C=CCSC[C@H](N)C(=O)O"
  parameter: "Cytotoxicity (%)"
  assayResult: -21.9
- molecule: "N[C@@H]1CONC1=O"
  parameter: "Cytotoxicity (%)"
  assayResult: -30.0

Can you give me Cytotoxicity (%) for all of these, one by one?
1. COc1cc(OC)c2c(=O)c(OC)c(-c3ccccc3)oc2c1
2. CC(=O)O[C@H]1CC[C@@]2(C)C(=CC[C@H]3[C@@H]4CC[C@H]([C@H](C)CCCC(C)C)[C@@]4(C)CC[C@@H]32)C1 [CHOLESTERYL ACETATE]
3. CCCCCCCCCCCC[C@@H](C(=O)O)[C@H](C)C(=O)O

8.8
-5.8
-4.1

====

test system: HCT-8 host cells (Hs18S); details: human, 41 h, 10 μM
Counter-ions that a name gives are not always drawn.
Provide the reported Hs18S ΔCT of each item.
Numbers only.

Field: example entries. Status: answers known.
- compound: "CC[C@H]1OC(=O)[C@H](C)[C@@H](O[C@H]2C[C@@](C)(OC)[C@@H](O)[C@H](C)O2)[C@H](C)[C@@H](O[C@@H]2O[C@H](C)C[C@H](N(C)C)[C@H]2O)[C@](C)(O)C[C@@H](C)C(=O)[C@H](C)[C@@H](O)[C@]1(C)O [ERYTHROMYCIN]"
  assayResult: 0.62
- compound: "O=c1cc(-c2ccc(O)cc2)oc2cc(O)cc(O)c12 [APIGENIN]"
  assayResult: 0.06
- compound: "Cc1cc2nc3c(=O)[nH]c(=O)nc-3n(C[C@H](O)[C@H](O)[C@H](O)CO)c2cc1C [RIBOFLAVIN]"
  assayResult: 0.02
- compound: "OC[C@@H](O)[C@@H](O)[C@@H](O)CO [ADONITOL]"
  assayResult: 0.26
- compound: "CN1C(=O)CC[C@H]1c1cccnc1 [COTININE]"
  assayResult: 0.41
- compound: "COC(=O)[C@H]1[C@H]2C[C@H]3c4[nH]c5ccccc5c4CCN3C[C@H]2CC[C@@H]1O [RAUWOLSCINE HYDROCHLORIDE]"
  assayResult: -0.17
- compound: "C[n+]1cccc(C(=O)[O-])c1 [TRIGONELLINE]"
  assayResult: 0.03
- compound: "COC(=O)[C@H]1[C@H]2C[C@@H]3c4[nH]c5cc(OC)ccc5c4CCN3C[C@H]2C[C@@H](OC(=O)c2cc(OC)c(OC)c(OC)c2)[C@@H]1OC [RESERPINE]"
  assayResult: 0.50
- compound: "Oc1cc2c(cc1O)C1c3ccc(O)c(O)c3OCC1(O)C2 (stereo not shown) [HAEMATOXYLIN]"
  assayResult: 0.00
- compound: "CC1(C)CC23C(=O)CCC(O)C2(C)CCC13 (stereo not shown) [3-NOR-3-OXOPANASINSAN-6-OL]"
  assayResult: 0.24

Please report Hs18S ΔCT for every entry that follows.
1. COC(=O)CC[C@@H](C)[C@H]1CC[C@H]2[C@@H]3[C@H](O)C[C@@H]4C[C@H](O)CC[C@]4(C)[C@H]3C[C@H](O)[C@]12C [CHOLIC ACID, METHYL ESTER]
2. Nc1nc(=O)c2[nH]c(=O)cnc2[nH]1 [XANTHOPTERIN]
3. CC(C)=CCC/C(C)=C/CC/C(C)=C/CO [FARNESOL]
4. CC(C)=CCOc1cc2oc(=O)ccc2cc1O [PRENYLETIN]
5. Oc1cc(O)c2c(c1)O[C@H](c1cc(O)c(O)c(O)c1)[C@H](O)C2 [EPIGALLOCATECHIN]
6. NCC(=O)c1ccccc1 [PHENACYLAMINE HYDROCHLORIDE]

-0.11
0.47
0.02
-0.59
0.15
1.22

====

system: HCT-8 host cells (Hs18S); settings: human, 41 h, 10 μM
Counter-ions that a name gives are not always drawn.
Flag rule - Hs18S ΔCT less than 0.04 flags Satisfied; the remaining entries get Not satisfied.

Field: example entries. Status: answers known.
- compound: "COc1ccc(-c2coc3cc(O)ccc3c2=O)c(OC)c1 [2'-METHOXYFORMONETIN]"
  classAssignment: "Not satisfied"
- compound: "Oc1cc(O)c2c(c1)O[C@H](c1ccc(O)c(O)c1)[C@@H](O)C2 [CIANIDANOL]"
  classAssignment: "Satisfied"
- compound: "C=C[C@H]1C[N@@]2CC[C@H]1C[C@H]2[C@H](O)c1ccnc2ccc(OC)cc12 [QUININE SULFATE]"
  classAssignment: "Satisfied"

Bench note: check whether CC(=O)O[C@H]1C[C@@H](OC(C)=O)C(C)(C)[C@@H]2C[C@@H](OC(C)=O)[C@]3(C)[C@H](CC[C@@]4(C)[C@H](c5ccoc5)OC(=O)[C@H]5O[C@@]534)[C@@]12C [KHIVORIN] shows Hs18S ΔCT below 0.04
Not satisfied

Consider OCc1ccccc1O[C@@H]1O[C@H](CO)[C@@H](O)[C@H](O)[C@H]1O [SALICIN] . Does its Hs18S ΔCT lie strictly below 0.04?
Not satisfied

I'd appreciate it if you could check whether CC(C)=CCCC1(C)C=Cc2c(O)c3c(c(CC=C(C)C)c2O1)OC12C(=CCCC1C(C)(C)O[C@@]2(C/C=C(\C)C(=O)O)C(=O)O)C3=O (stereo partly shown) [GARCINOLIC ACID] has Hs18S ΔCT smaller than 0.04.
Not satisfied
